Source of measurements: patent US20230021562A1

- tested_system: Myeloid Cell Leukemia 1 (Mcl-1) (Homo sapiens, UniProt Q07820)
- Sequence (Q07820 whole entry): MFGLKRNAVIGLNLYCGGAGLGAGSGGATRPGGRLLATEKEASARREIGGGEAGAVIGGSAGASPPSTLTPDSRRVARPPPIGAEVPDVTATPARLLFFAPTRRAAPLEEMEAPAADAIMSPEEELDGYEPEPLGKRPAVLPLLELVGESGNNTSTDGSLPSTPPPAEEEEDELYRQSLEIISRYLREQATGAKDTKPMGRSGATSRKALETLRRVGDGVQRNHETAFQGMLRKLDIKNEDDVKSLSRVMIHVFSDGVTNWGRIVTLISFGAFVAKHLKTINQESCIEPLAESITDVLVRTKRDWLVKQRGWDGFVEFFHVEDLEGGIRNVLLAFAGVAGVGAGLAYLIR
- test_details: biochemical
- Type: binding
- experimental_context: HTRF Ki (nM)

{"molecule": "Cc1nn(CCN2CCOCC2)c2c1-c1c(Cl)ccc3c(c(C(=O)O)n(C)c13)CCCOc1cc(cc3ccccc13)SCc1cc(nn1C)CN(C)C2 (single isomer, unassigned) [Compound 42]", "Ki, nM": 0.79}
{"molecule": "Cc1c2c(nn1CCCN1CCOCC1)CN(C)Cc1cc(n(C)n1)CSc1cc(c3ccccc3c1)OCCCc1c(C(=O)O)n(C)c3c-2c(Cl)ccc13 (single isomer, unassigned) [Compound 35]", "Ki, nM": 0.04}
{"molecule": "CCn1nc2cc1CSCc1nn(C)c(C)c1-c1c(Cl)ccc3c(c(C(=O)O)n(C)c13)CCCOc1cc(cc3ccccc13)SC2 [Compound 1]", "Ki, nM": 0.15}
